Sourced from ChEMBL document CHEMBL5154644

- Assay target: Phosphatidylinositol 4,5-bisphosphate 3-kinase catalytic subunit delta isoform (Homo sapiens, UniProt O00329)
- Sequence (O00329 whole entry): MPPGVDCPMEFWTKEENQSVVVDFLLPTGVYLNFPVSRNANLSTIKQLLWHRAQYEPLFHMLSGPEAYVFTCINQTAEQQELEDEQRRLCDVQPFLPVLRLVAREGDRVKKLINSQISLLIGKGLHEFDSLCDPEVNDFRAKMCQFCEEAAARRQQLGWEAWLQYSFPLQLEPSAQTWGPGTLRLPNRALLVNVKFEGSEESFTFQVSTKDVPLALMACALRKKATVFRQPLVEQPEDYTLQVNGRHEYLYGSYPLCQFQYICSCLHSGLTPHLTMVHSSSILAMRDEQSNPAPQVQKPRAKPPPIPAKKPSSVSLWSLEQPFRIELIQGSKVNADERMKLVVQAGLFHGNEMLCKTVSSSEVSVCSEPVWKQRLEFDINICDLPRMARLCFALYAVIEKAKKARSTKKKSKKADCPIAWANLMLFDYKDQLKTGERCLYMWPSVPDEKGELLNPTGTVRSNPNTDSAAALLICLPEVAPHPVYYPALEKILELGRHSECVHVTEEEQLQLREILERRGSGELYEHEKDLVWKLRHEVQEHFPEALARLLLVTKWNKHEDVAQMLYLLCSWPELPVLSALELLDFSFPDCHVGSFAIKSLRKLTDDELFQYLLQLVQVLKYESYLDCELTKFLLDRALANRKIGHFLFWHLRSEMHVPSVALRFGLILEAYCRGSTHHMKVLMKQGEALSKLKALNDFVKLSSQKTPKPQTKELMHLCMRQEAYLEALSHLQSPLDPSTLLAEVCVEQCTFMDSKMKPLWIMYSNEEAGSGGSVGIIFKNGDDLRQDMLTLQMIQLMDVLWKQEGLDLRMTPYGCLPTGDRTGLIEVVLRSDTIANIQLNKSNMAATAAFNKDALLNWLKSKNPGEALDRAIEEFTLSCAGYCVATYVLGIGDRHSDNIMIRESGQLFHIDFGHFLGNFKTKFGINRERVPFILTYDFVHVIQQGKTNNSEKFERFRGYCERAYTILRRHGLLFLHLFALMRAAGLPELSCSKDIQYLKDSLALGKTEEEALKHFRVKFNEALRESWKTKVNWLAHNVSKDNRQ
- Measurement description: Inhibition of PI3Kdelta (unknown origin) using PIP2 as substrate preincubated for 1 hr followed by substrate addition and measured after 60 mins in presence of ATP by ADP-glo assay
Measure: IC50 (nM)

// solved cases for IC50 follow
• C[C@H](N1Cc2cc(-c3ccn4nc(N)c(C(=O)N[C@@H](CO)C5CC5)c4n3)cc(Cl)c2C1=O)C(F)(F)F = 4640
• C[C@@H](C1CC1)N1Cc2cc(-c3ccn4nc(N)c(C(=O)NC5CC5)c4n3)cc(S(=O)(=O)C3CC3)c2C1=O = 172
• Cc1cc(-c2ccn3nc(N)c(C(=O)N[C@H](C)CO)c3n2)cc2c1C(=O)N([C@@H](C)C1CC1)C2 = 1280

(a) C[C@@H](C1CC1)N1Cc2cc(-c3ccn4nc(N)c(C(=O)NC5CC5)c4n3)cc(S(=O)(=O)C3CCC3)c2C1=O
(b) Cc1cc(-c2ccn3nc(N)c(C(=O)N[C@H]4CCOC4)c3n2)cc2c1C(=O)N([C@@H](C)C1CC1)C2
(c) CNS(=O)(=O)c1cc(-c2ccn3nc(N)c(C(=O)N[C@H]4CC[C@](C)(O)CC4)c3n2)cc2c1C(=O)N([C@@H](C)C(F)(F)F)C2
(d) CC(C)[C@H](N1Cc2cc(-c3ccn4nc(N)c(C(=O)NC5CC5)c4n3)cc(NS(C)(=O)=O)c2C1=O)C(F)(F)F
QUERY: Write the entries in order, lowest recorded IC50 first. Return the labels ranked in the requested order, please.
RESULT: c, a, b, d
(c: 20 nM, a: 376 nM, b: 598 nM, d: 2750 nM)
